- Test: in vivo
- Set-up: species or system beagle dogs
- Experimental Context: male, beagle, dog, po, 300 mg
*1 amine or outer side, *2 acyl side, *3 side chain or, on linkers, in order; H or OH if unused. Side-chain parts run from the residue outwards. [ ]: non-standard residue; d: D form. The star is where a group is joined. X1 = O=C(O)CCCCCCCCCCCCCCC(=O)N[C@@H](CCC(=O)NCCCC[C@H](NC(=O)CC[C@H](NC(=O)CCCCCCCCCCCCCCC(=O)O)C(=O)O)C(=O)*)C(=O)O; N(2-Aminoethyl)Gly = O=C(CN(CCN[*:3])[*:1])[*:2]; C18 diacid = O=C(O)CCCCCCCCCCCCCCCCC(=O)*; C16 diacid = O=C(O)CCCCCCCCCCCCCCC(=O)*; γGlu = O=C(O)[C@H](CCC(=O)[*:2])N[*:1]; εLys = N[C@@H](CCCCN[*:1])C(=O)[*:2]; AEEA = NCCOCCOCC(=O)O; Aib = CC(C)(N)C(=O)O; Sar = CNCC(=O)O
Endpoint: Tmax (h)
Lab book: enter the figure in h, no units written.

Here are 5 substances together with their reported answers.
Substance	Endpoint	Value Measured
H-K([γGlu-C16 diacid])VY[Aib]EGTFTSDYSILLEK([εLys-εLys-γGlu-C18 diacid])QAAREFIEWLLAGGPSSGAPPPS-OH [Non-converting compound 3]	Tmax	4
H-K([γGlu-C16 diacid])[Sar]Y[Aib]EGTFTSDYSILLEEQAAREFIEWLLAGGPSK([AEEA-AEEA-γGlu-C16 diacid])GAPPPS-OH [Compound 3]	Tmax	7
H-G[N(2-Aminoethyl)Gly]([γGlu-C16 diacid])Y[Aib]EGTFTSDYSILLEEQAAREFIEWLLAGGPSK([AEEA-AEEA-γGlu-C16 diacid])GAPPPS-OH [Compound 2]	Tmax	4
H-K(X1)[Sar]Y[Aib]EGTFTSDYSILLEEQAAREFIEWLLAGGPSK([εLys-εLys-γGlu-C16 diacid])GAPPPS-OH [Compound 14]	Tmax	5.5
H-[dK]([γGlu-C16 diacid])[Sar]Y[Aib]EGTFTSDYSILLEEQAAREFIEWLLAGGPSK([AEEA-AEEA-γGlu-C16 diacid])GAPPPS-OH [Compound 1]	Tmax	4

Q: Quick one: give measured Tmax for H-L[N(2-Aminoethyl)Gly]([γGlu-C16 diacid])Y[Aib]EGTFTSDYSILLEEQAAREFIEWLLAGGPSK([AEEA-AEEA-γGlu-C16 diacid])GAPPPS-OH [Compound 5]
Ans: 7

Q: Find the measured Tmax of H-K([γGlu-C16 diacid])VY[Aib]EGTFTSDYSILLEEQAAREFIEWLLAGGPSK([εLys-εLys-γGlu-C16 diacid])GAPPPS-OH [Non-converting compound 2] and report it.
Ans: 1.3

Q: Please give the documented Tmax of H-K([γGlu-C16 diacid])[Sar]Y[Aib]EGTFTSDYSILLEK([εLys-εLys-γGlu-C18 diacid])QAAREFIEWLLAGGPSSGAPPPS-OH [Compound 16]
Ans: 4

Q: For the substance H-K([γGlu-C18 diacid])[Sar]Y[Aib]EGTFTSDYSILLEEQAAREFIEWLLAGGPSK([εLys-εLys-γGlu-C18 diacid])GAPPPS-OH [Compound 15] , give its reported Tmax.
Ans: 1.5

Q: # return recorded Tmax for entry H-K([γGlu-C16 diacid])VY[Aib]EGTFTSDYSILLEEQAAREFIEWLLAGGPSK([AEEA-AEEA-γGlu-C16 diacid])GAPPPS-OH [Non-converting compound 1]
Ans: 1.5

Q: Provide one value: measured Tmax of H-K([γGlu-C16 diacid])[Sar]Y[Aib]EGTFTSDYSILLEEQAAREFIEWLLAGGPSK([εLys-εLys-γGlu-C16 diacid])GAPPPS-OH [Compound 12]
Ans: 1.3

Q: Look up and report measured Tmax for this entry: H-K([γGlu-C18 diacid])[Sar]Y[Aib]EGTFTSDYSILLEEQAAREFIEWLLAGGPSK([εLys-εLys-γGlu-C16 diacid])GAPPPS-OH [Compound 13]
Ans: 4.3

Q: Find the measured Tmax of H-G[N(2-Aminoethyl)Gly]([γGlu-C16 diacid])Y[Aib]EGTFTSDYSILLEK([εLys-εLys-γGlu-C18 diacid])QAAREFIEWLLAGGPSSGAPPPS-OH [Compound 17] and report it.
Ans: 1.5
